# System: CCRF-CEM leukemia
# Method description: NCI tumour cell line growth inhibition, 48 h
Endpoint label: GI50

[[record]]
molecule = "CCCCCCCCCCCCNC(=O)N[C@H](C(=O)N[C@H]1/C=C/OCCNC(=O)/C=C/[C@H](C(C)C)NC1=O)C(C)C"
experimental_system = "CCRF-CEM leukemia"
endpoint_label = "GI50"
value_observed = "2160 nM"

[[record]]
molecule = "CCCN1CCCC(c2ccc(Nc3nc(Nc4cc(F)ccc4C(N)=O)c4cc[nH]c4n3)c(OC)c2)C1 (centres undefined)"
experimental_system = "CCRF-CEM leukemia"
endpoint_label = "GI50"
value_observed = "1550 nM"

[[record]]
molecule = "CC[C@@]12CC(C(=O)OC)=C3Nc4ccccc4[C@@]34CCN(C[C@H]3O[C@H]31)[C@@H]24"
experimental_system = "CCRF-CEM leukemia"
endpoint_label = "GI50"
value_observed = "33900 nM"

[[record]]
molecule = "FC(F)(F)c1ccc(-c2cnc(-c3nn[nH]n3)nc2NC2CCCCCC2)cc1"
experimental_system = "CCRF-CEM leukemia"
endpoint_label = "GI50"
value_observed = "> 10000 nM"

